Tested on: STAT3
Assay: HCS STAT3 assay
Format: cell-based
Settings: Table 2; read-out: STAT3 (IC50)
pIC50: −log10 of the molar value.
Reported pIC50 by item:
measuredAttribute: pIC50

1) CC1Sc2nnc(-c3nn(Cc4ccccc4)c4c3CCC4)n2N=C1c1ccc(Cl)c(Cl)c1 (stereo not shown) = 5.23
2) COc1ccc(C2=Nn3c(nnc3-c3[nH]nc4c3CCC4)SC2Cc2ccccc2)cc1 (stereo not shown) = 4.71
3) CC(C)CC1Sc2nnc(-c3[nH]nc4c3CCC4)n2N=C1c1ccc(Cl)c(Cl)c1 (racemic) = 4.57
4) COc1ccc(C2=Nn3c(nnc3-c3cc(-c4ccccc4)n[nH]3)SC2C)cc1OC (stereo not shown) = 5.12
